# test: chemical genetic growth profiling, strain panel (AID 1159580);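 also: tested at 20 µM; growth read once vehicle control cultures reached saturation at 30 °C; 1 = growth at the plate median or of vehicle wells; lower values mean less growth of the strain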
# conditionSummary: S. cerevisiae deletion strains, growth OD, locus YNL183C, strain NPR1, stronger effect = lower value
In all, about 5,500 compounds went through this assay and about 2,000 (36%) were called active. Another 18% or so got no clear call; they are omitted. The list shows a part of the results.
Quick reference for normalized growth among some compounds
The response must contain the number and no unit.

compound="S=C(NNC(=S)NC1CC2C=CC1C2)Nc1ccc(Br)c(Cl)c1 (stereo not drawn)" recordedvalue=1.04

Which normalized growth reading was recorded for the compound NC(Cc1c[nH]c2ccccc12)C(=O)O (stereo not drawn) ? 0.941

Can you look up the measured normalized growth of Cc1cc(O)cc(O)c1C(=O)O for me? 1.01

Which value of normalized growth has been reported for Cc1cc(O)ccc1Cl in the records? 0.896

====

# test: chemical genetic growth profiling, strain panel (AID 1159580)
# conditionSummary: S. cerevisiae deletion strains, growth OD, locus YJL092W, strain hpr5
The whole screen tested about 5,500 compounds, of which about 2,000 (36%) were called active. Another 18% or so got no clear call; they are omitted. Cut-off read from the data, not from the text of the source: active = normalized growth mostly below about 0.91 (no sharp cut-off); inconclusive = no clear call, values can overlap the other calls; inactive = mostly above about 0.92. The list shows a part of the results.
Reply using exactly one outcome from active, inactive

compound=Nc1c2ccccc2nc2ccccc12 assignedcategory=active
compound=COc1cc(N)c(Cl)cc1C(=O)NC1CCN(Cc2ccccc2)CC1 assignedcategory=inactive
compound=CC(=O)NCc1c(I)c(NC(C)=O)c(I)c(C(=O)O)c1I assignedcategory=inactive

Hi, do you know how Cc1cc(O)cc(C)c1Cl came out in this test? inactive

How did this test come out for COc1ccc2c(c1)c(CC(=O)O)c(C)n2C(=O)c1ccc(Cl)cc1 ? inactive

What call does the record list for Cc1cc(C(C)(C)C)c(O)c(C(C)(C)C)c1 ? inactive

Hey, what did the test say about CC1(C)CC(O)C2(C)CCC3(C)C(=CCC4C5(C)CCC(O)C(C)(CO)C5CCC43C)C2C1 (centres undefined) ? inactive

Short answer needed: outcome of this test for C[C@@H]1C(=O)O[C@H]2[C@H]1CC[C@@]1(C)C=CC(=O)[C@@]3(C)O[C@@]213 ? inactive

Fill in: this test's call for O=c1ccc2ccc(O)cc2o1 is ___ inactive

Given Cc1cc(O)cc(O)c1C(=O)O , state the outcome it received in this test. inactive

====

# test: chemical genetic growth profiling, strain panel (AID 1159580)
# conditionSummary: S. cerevisiae deletion strains, growth OD, locus YAL021C, strain ccr4, stronger effect = lower value
Out of some 5,500 compounds screened, about 2,000 (36%) were called active. Inconclusive results (about 18%) are left out. The list shows a part of the results.
Quick reference: normalized growth of the listed items.
Kindly provide the number alone.

compound=N=C(N)SCCN recordedvalue=0.98

Could you share which normalized growth value was measured for COc1ccc2c(c1)c(CC(=O)OCC(=O)O)c(C)n2C(=O)c1ccc(Cl)cc1 ? 0.982

Give its normalized growth value. Item: Cc1cn([C@H]2C[C@H](N=[N+]=[N-])[C@@H](CO)O2)c(=O)[nH]c1=O 0.993

Could you tell me which normalized growth is on file for Nc1ccc(S(=O)(=O)Nc2cnc3ccccc3n2)cc1 ? 1.01

Given Cc1ccc(S(=O)(=O)NC(=O)NN2CC3CCCC3C2)cc1 (configuration not stated) , state its recorded normalized growth. 0.996

Fill in: normalized growth of CC(C)CC(N(C)C)C1(c2ccc(Cl)cc2)CCC1 (configuration not stated) is ___ 0.987

Entry CC(C)(Sc1cc(C(C)(C)C)c(O)c(C(C)(C)C)c1)Sc1cc(C(C)(C)C)c(O)c(C(C)(C)C)c1 : reported normalized growth = ? 1.03

Look up normalized growth for this compound: NCCC(=O)N[C@@H](Cc1cnc[nH]1)C(=O)O 0.997

What value of normalized growth has been reported for the following compound? CC(C)(Oc1ccc(CCNC(=O)c2ccc(Cl)cc2)cc1)C(=O)O 0.982

Give its normalized growth value. Item: O=c1ccc2ccc(O)cc2o1 1.05

====

# test: chemical genetic growth profiling, strain panel (AID 1159580);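 also: tested at 20 µM; growth read once vehicle control cultures reached saturation at 30 °C; 1 = growth at the plate median or of vehicle wells; lower values mean less growth of the strain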
# conditionSummary: S. cerevisiae deletion strains, growth OD, locus YOR265W, strain rbl2
About 2,000 (36%) of roughly 5,500 compounds were called active. Inconclusive results (about 18%) are left out. Rule as the data show it: active = normalized growth mostly below about 0.91 (no sharp cut-off); inconclusive = no clear call, values can overlap the other calls; inactive = mostly above about 0.92. The list shows a part of the results.
Permitted responses: TRUE = active, FALSE = inactive

Below, 3 molecules whose answers are already recorded.
molecule=CC(C)(Oc1ccc(CCNC(=O)c2ccc(Cl)cc2)cc1)C(=O)O assignedcategory=FALSE
molecule=CNC(=O)O/N=C\C(C)(C)SC assignedcategory=FALSE
molecule=COc1cc(N)c(Cl)cc1C(=O)NC1CCN(Cc2ccccc2)CC1 assignedcategory=FALSE

GET /call?item= Cc1cc(-n2c(=O)[nH]c(=O)n(C)c2=O)ccc1Oc1ccc(SC(F)(F)F)cc1 returns the recorded outcome of this test. TRUE

Just curious, what result did CC(C)CCCC1(C)C=Cc2c(O)c3c(c(CCC(C)C)c2O1)OC12C(CC4CC1C(C)(C)OC2(CCC(C)C(=O)O)C4O)C3=O (centres undefined) get here? FALSE

Check the results log: what was the call for CC(=O)/C=C\[C@@H]1[C@@]2(C)CCCC(C)(C)C2CC[C@@]1(C)O (some centres undefined) ? FALSE

Per the assay record, what outcome was assigned to C#C[C@]1(OC(C)=O)CCC2C3CCC4=C/C(=N\O)CCC4C3CC[C@@]21CC (some centres undefined) ? TRUE

====

# test: chemical genetic growth profiling, strain panel (AID 1159580);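 also: tested at 20 µM; growth read once vehicle control cultures reached saturation at 30 °C; 1 = growth at the plate median or of vehicle wells; lower values mean less growth of the strain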
# conditionSummary: S. cerevisiae deletion strains, growth OD, locus YEL037C, strain rad23, stronger effect = lower value
Out of some 5,500 compounds screened, about 2,000 (36%) were called active. Another 18% or so got no clear call; they are omitted. Some of the results follow.
Labelling: normalized growth reported below 1 becomes Yes; at or above becomes No.

I wonder whether O=C(CNC(=O)c1ccc(Cl)cc1)NO has normalized growth below 1. Can you tell? No

In plain terms, does CCOP(=S)(OCC)Oc1nc(Cl)c(Cl)cc1Cl come in under 1 for normalized growth? Yes

API: query returns whether the molecule falls strictly under 1 in normalized growth. Query: Cc1ccc(-c2cc(C(F)(F)F)nn2-c2ccc(S(N)(=O)=O)cc2)cc1 No

Dear colleague, could you confirm whether normalized growth of C#C[C@]1(O)CCC2C3CCC4=CC(=O)CC[C@@H]4C3CC[C@@]21C (stereo partly specified) falls below 1? Thanks. Yes

====

# test: chemical genetic growth profiling, strain panel (AID 1159580);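 also: tested at 20 µM; growth read once vehicle control cultures reached saturation at 30 °C; 1 = growth at the plate median or of vehicle wells; lower values mean less growth of the strain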
# conditionSummary: S. cerevisiae deletion strains, growth OD, locus YBR279W, strain paf1, stronger effect = lower value
Out of some 5,500 compounds screened, about 2,000 (36%) were called active. About 18% were inconclusive and are not listed. Some of the results follow. Where a SMILES comes first, the peptide text is derived from it. Bridges are numbered along the chain shown (N, C = ends). [ ]: non-standard residue; d: D form. The star is where a group is joined. ξ: configuration not given here. ξDab(CH2SO3H) = NC(CCNCS(=O)(=O)O)C(=O)O; Heptanoyl(6-Me) = CC(C)CCCCC(=O)*; Dab = NCC[CH](N)C(=O)O
Listing of recorded normalized growth by entry.

Example molecules with recorded normalized growth:
molecule=C[C@@H]1CC[C@H]2[C@@H](C)C(=O)O[C@@H]3O[C@@]4(C)CC[C@@H]1[C@]32OO4 readoutname="normalized growth" recordedvalue="0.864 (active)"
molecule="CCC(C)C1NC(=O)C(CCNCS(=O)(=O)O)NC(=O)C(NC(=O)C(CCNCS(=O)(=O)O)NC(=O)C(NC(=O)C(CCNCS(=O)(=O)O)NC(=O)CCCCC(C)C)C(C)O)CCNC(=O)C(C(C)O)NC(=O)C(CCNCS(=O)(=O)O)NC(=O)C(CCNCS(=O)(=O)O)NC(=O)C(C(C)CC)NC1=O (stereo unspecified) ({Heptanoyl(6-Me)}-[ξDab(CH2SO3H)]T[ξDab(CH2SO3H)][Dab][ξDab(CH2SO3H)]II[ξDab(CH2SO3H)][ξDab(CH2SO3H)]T; lactam 4-C; configuration not given here)" readoutname="normalized growth" recordedvalue="1 (inactive)"
molecule=Cc1cc(-n2c(=O)[nH]c(=O)n(C)c2=O)ccc1Oc1ccc(SC(F)(F)F)cc1 readoutname="normalized growth" recordedvalue="0.935 (inactive)"

Consider the molecule shown here: CC1(C)CCC2(C(=O)O)CCC3(C)C(=CCC4C5(C)CCC(O)C(C)(C)C5C(O)CC43C)C2C1 (stereo unspecified) What is its recorded normalized growth? 1.03 (inactive)

# normalized growth lookup, item CCOC(=O)OC(C)OC(=O)C1N2C(=O)C(NC(=O)[C@H](N)c3ccccc3)C2SC1(C)C (stereo partly specified) 0.989 (inactive)

Reported normalized growth, molecule Cc1cn([C@H]2C[C@H](N=[N+]=[N-])[C@@H](CO)O2)c(=O)[nH]c1=O : ____ 0.979 (inactive)

Where do the numbers come from? From PubChem BioAssay AID1159580.
